# DC50 annotations
- SYSTEM TESTED: SMARCA2 (Homo sapiens, UniProt P51531)
- Sequence (P51531 whole entry): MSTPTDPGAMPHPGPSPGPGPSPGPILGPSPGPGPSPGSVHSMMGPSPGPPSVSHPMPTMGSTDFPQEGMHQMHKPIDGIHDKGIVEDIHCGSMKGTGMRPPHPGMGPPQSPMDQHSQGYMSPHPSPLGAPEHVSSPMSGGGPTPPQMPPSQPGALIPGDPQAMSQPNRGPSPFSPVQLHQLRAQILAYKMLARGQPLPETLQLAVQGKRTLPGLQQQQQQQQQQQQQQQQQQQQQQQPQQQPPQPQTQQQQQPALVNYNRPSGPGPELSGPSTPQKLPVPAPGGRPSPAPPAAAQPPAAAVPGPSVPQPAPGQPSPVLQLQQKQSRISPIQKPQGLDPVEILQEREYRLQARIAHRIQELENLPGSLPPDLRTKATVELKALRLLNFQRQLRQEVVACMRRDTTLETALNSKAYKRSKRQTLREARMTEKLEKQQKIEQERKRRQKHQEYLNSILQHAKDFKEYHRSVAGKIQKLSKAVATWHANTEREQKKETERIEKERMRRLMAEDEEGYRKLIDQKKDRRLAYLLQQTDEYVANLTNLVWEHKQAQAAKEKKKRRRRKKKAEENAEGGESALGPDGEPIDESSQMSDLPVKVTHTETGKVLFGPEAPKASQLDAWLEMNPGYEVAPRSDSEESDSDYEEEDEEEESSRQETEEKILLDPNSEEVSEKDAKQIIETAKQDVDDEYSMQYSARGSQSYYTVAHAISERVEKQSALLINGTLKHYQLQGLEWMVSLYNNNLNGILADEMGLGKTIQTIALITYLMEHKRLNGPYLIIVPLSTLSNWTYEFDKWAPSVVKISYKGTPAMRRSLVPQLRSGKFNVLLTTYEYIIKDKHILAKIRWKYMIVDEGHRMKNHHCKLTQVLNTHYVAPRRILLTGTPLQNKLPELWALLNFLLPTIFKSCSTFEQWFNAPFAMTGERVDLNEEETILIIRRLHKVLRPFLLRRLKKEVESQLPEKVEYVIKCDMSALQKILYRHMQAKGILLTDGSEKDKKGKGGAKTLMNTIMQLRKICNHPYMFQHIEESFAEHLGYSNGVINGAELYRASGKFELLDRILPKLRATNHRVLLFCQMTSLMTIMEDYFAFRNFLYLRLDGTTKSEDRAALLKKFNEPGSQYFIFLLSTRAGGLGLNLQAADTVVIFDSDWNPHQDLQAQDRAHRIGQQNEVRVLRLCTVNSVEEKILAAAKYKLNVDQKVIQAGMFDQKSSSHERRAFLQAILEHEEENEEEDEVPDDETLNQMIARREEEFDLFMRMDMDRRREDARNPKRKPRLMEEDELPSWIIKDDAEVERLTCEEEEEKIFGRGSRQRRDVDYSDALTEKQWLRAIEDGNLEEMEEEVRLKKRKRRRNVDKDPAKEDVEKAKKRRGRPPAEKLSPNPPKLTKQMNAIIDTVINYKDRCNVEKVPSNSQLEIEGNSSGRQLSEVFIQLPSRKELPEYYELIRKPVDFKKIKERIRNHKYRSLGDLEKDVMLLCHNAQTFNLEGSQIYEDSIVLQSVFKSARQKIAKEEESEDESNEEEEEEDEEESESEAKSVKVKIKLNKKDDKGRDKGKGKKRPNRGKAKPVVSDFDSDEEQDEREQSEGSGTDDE
- PROCEDURE DETAILS: MSD SMARCA2 degradation in A549 cell line
- Type: cell-based
- CONDITION LABEL: A549 cells, 24 h, read-out: SMARCA2 MSD A549 degradation 24 h: Average external-Abs DC50

Sample records with DC50:
MOLECULE: C#Cc1ccc(CNC(=O)[C@@H]2C[C@@H](O)CN2C(=O)[C@@H](NC(=O)N2CC3(CC(N4CCC(c5cnc(N6CCc7[nH]c8nnc(-c9ccccc9O)cc8c7[C@H]6C)nc5)CC4)C3)C2)C(C)(C)CCN2CCN[C@H](C(=O)O)C2)cc1
SYSTEM TESTED: SMARCA2 (Homo sapiens, UniProt P51531)
VALUE REPORTED: > 100 nM

MOLECULE: C[C@H](NC(=O)[C@@H]1C[C@@H](O)CN1C(=O)[C@@H](NC(=O)[C@H]1CCC2(CC1)C[C@H](N1CCC(c3cnc(N4CCN5c6cc(-c7ccccc7O)nnc6NC[C@H]5C4)nc3)CC1)C2)C(C)(C)C)c1ccc(-c2ccnn2C)cc1 (single isomer, unassigned) [I-22]
SYSTEM TESTED: SMARCA2 (Homo sapiens, UniProt P51531)
VALUE REPORTED: 10 to 50 nM

[in] For the molecule shown here, C#Cc1ccc(CNC(=O)[C@@H]2C[C@@H](O)CN2C(=O)[C@@H](NC(=O)N2CC3(CC(N4CCC(c5cnc(N6CCc7[nH]c8nnc(-c9ccccc9O)cc8c7[C@H]6C)nc5)CC4)C3)C2)C(C)(C)CCN2CCOCC2)cc1 (single isomer, unassigned) , give the reported DC50.
[out] > 100 nM

[in] Next up: C#Cc1ccc(CNC(=O)[C@@H]2C[C@@H](O)CN2C(=O)[C@@H](NC(=O)[C@H]2CCC3(CC2)C[C@H](N2CCN(c4cnc(N5CCN6c7cc(-c8ccccc8O)nnc7NC[C@H]6C5)nc4)CC2)C3)C(C)(C)C)c(OC)c1 (single isomer, unassigned) [I-196]
[out] 10 to 50 nM

----------
- SYSTEM TESTED: SMARCA2 (Homo sapiens)
- PROCEDURE DETAILS: MSD SMARCA2 degradation in A549 cell line
- Type: cell-based
- CONDITION LABEL: A549 cells
ENDPOINT NAME: SMARCA2 MSD A549 degradation 24 h: Average Dmax %

COMPOUND: Cc1ncsc1-c1ccc(CNC(=O)[C@@H]2C[C@@H](O)CN2C(=O)[C@@H](NC(=O)[C@H]2CCC3(CC2)C[C@H](N2CCC4(CC2)CN(C(=O)N2CCN5c6cc(-c7ccccc7O)nnc6NC[C@H]5C2)CCO4)C3)C(C)(C)C)cc1 (single isomer, unassigned)
VALUE REPORTED: A (A (>90% degradation))
--
COMPOUND: C[C@H](NC(=O)[C@@H]1C[C@@H](O)CN1C(=O)[C@@H](NC(=O)[C@H]1CCC2(CC1)C[C@H](N1CCC(c3cnc(N4CCN5c6cc(-c7ccccc7O)nnc6NC[C@H]5C4)nc3)CC1)C2)C(C)(C)C)c1ccc(-c2ccnn2C)cc1 (single isomer, unassigned)
VALUE REPORTED: A (A (>90% degradation))

----------
- SYSTEM TESTED: SMARCA4 (Homo sapiens)
- Construct: SMARCA2/SMARCA4 protein degradation selectivity in MV4-11 cells; endogenous in cells; host or cells: MV4-11
- Sequence (P51532 whole entry): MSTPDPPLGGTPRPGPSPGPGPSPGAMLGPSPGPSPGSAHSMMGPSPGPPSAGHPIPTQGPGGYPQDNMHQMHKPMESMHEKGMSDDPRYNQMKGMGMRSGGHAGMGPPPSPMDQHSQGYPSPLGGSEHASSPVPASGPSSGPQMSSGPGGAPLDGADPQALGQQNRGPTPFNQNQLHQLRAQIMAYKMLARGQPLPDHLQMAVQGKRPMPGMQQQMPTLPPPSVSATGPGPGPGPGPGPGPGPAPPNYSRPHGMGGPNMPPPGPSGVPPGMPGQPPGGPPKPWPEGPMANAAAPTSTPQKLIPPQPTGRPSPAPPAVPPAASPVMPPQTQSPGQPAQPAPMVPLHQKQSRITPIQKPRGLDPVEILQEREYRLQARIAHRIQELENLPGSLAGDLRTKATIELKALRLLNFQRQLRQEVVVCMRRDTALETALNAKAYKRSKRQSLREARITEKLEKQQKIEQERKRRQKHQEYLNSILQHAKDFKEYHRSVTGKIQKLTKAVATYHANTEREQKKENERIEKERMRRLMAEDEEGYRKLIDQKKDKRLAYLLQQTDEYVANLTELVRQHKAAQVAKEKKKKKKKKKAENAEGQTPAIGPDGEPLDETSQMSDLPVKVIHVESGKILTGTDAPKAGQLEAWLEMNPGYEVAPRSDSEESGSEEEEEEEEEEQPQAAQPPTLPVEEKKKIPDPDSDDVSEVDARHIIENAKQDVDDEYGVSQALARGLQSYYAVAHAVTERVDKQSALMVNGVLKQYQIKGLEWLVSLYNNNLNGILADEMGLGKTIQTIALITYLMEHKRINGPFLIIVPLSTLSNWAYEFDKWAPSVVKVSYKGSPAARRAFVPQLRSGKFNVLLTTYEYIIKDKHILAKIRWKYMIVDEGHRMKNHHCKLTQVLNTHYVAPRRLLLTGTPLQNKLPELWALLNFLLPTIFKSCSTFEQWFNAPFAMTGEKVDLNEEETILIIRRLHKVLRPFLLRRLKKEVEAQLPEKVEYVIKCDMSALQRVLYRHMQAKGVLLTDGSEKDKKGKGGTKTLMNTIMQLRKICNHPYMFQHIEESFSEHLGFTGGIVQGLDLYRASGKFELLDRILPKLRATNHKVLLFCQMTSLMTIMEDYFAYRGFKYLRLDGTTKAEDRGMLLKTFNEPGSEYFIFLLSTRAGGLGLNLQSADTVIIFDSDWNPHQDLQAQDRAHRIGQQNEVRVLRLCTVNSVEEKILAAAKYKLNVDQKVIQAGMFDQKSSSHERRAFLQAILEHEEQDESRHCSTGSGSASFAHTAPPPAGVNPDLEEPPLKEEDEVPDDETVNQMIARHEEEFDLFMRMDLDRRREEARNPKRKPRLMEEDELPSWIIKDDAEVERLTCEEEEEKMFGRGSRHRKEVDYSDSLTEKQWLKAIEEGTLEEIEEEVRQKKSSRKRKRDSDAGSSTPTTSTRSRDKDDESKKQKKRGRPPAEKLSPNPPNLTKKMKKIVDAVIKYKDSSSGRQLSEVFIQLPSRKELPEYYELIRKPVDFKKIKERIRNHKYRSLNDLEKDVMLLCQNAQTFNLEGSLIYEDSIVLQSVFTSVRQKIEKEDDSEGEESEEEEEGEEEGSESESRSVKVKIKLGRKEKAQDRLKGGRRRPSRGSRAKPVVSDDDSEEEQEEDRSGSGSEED
- PROCEDURE DETAILS: SMARCA4 Western blot degradation in MV4-11 cells
- Format: cell-based
- CONDITION LABEL: MV4-11, MV4-11 cells, 24 h; read-out: SMARCA4 MSD MV411 degradation 24 h: average Dmax %
# Dmax annotations

Sample records with Dmax:
COMPOUND: C#Cc1ccc(CNC(=O)[C@@H]2C[C@@H](O)CN2C(=O)[C@@H](NC(=O)[C@H]2CCC3(CC2)C[C@H](N2CCC(N4CC5(CC(N6CCN7c8cc(-c9ccccc9O)nnc8NC[C@H]7C6)C5)C4)CC2)C3)C(C)(C)C)cc1 (single isomer, unassigned)
VALUE REPORTED: 50 to 70%

COMPOUND: C#Cc1ccc(CNC(=O)[C@@H]2C[C@@H](O)CN2C(=O)C(c2cc(OCCN3CCC(N4CCC(N5CCC(CN6CCN7c8cc(-c9ccccc9O)nnc8NC[C@H]7C6)CC5)CC4)CC3)no2)C(C)C)c(F)c1 (some centres unmarked)
VALUE REPORTED: 70 to 90%

COMPOUND: C#Cc1ccc(CNC(=O)[C@@H]2C[C@@H](O)CN2C(=O)[C@@H](NC(=O)N2CCN(CC3CCN(c4cnc(N5CCc6[nH]c7nnc(-c8ccccc8O)cc7c6[C@H]5C)nc4)CC3)CC2)C(C)(C)C)cc1
VALUE REPORTED: 50 to 70%

Here is another compound to look at.
[in] For the compound shown here, C#Cc1ccc(CNC(=O)[C@@H]2C[C@@H](O)CN2C(=O)[C@@H](NC(=O)N2CCN(CC3CCN([C@H]4CC[C@@H](N5CCc6[nH]c7nnc(-c8ccccc8O)cc7c6[C@H]5C)CC4)CC3)CC2)C(C)(C)C)cc1 , give the reported Dmax.
[out] < 50%
